Biological target: Acetylcholinesterase (Electrophorus electricus, UniProt O42275)
Sequence (O42275 whole entry): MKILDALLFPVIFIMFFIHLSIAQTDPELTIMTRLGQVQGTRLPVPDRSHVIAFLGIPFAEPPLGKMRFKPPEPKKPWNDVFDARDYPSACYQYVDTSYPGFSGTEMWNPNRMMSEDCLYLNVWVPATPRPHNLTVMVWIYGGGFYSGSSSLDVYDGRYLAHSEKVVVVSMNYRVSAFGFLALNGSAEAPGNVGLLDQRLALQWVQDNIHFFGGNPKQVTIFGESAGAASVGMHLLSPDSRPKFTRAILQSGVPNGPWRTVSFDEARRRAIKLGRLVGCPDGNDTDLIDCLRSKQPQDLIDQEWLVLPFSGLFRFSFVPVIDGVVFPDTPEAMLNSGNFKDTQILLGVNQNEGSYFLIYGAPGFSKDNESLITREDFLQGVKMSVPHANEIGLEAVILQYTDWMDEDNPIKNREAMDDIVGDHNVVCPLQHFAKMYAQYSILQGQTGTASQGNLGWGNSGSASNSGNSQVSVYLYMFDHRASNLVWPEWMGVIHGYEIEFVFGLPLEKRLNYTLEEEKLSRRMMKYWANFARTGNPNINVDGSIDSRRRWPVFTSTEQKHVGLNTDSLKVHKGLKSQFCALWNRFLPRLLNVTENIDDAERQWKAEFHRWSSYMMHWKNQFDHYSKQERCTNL
Assay: Inhibition of electric eel AchE preincubated for 30 mins followed by substrate addition using acetylthiocholine iodide as substrate by Ellman's method

{"columns": ["Given Smiles", "IC50"],
 "data": [
  ["COc1cc(/C=C/C(=O)O[C@H]2C[C@H]3O[C@H](OC(=O)Nc4ccccc4)C[C@H]3O2)ccc1O", "27.1 µM"]
]}

---

Collected pIC50 values appear next to each entry.
Test: Antioxidant activity assessed as DPPH radical scavenging activity measured for 45 mins by spectrophotometric analysis
Format: functional
pIC50: −log10 of the molar value.

{"columns": ["Molecule", "pIC50"],
 "data": [
  ["COc1cc(/C=C/C(=O)O)ccc1O [FERULATE]", 4.19],
  ["COc1cc(/C=C/C(=O)O)ccc1S", 4.32]
]}

---

Target: Acetylcholinesterase (Homo sapiens)
Sequence (P22303 whole entry): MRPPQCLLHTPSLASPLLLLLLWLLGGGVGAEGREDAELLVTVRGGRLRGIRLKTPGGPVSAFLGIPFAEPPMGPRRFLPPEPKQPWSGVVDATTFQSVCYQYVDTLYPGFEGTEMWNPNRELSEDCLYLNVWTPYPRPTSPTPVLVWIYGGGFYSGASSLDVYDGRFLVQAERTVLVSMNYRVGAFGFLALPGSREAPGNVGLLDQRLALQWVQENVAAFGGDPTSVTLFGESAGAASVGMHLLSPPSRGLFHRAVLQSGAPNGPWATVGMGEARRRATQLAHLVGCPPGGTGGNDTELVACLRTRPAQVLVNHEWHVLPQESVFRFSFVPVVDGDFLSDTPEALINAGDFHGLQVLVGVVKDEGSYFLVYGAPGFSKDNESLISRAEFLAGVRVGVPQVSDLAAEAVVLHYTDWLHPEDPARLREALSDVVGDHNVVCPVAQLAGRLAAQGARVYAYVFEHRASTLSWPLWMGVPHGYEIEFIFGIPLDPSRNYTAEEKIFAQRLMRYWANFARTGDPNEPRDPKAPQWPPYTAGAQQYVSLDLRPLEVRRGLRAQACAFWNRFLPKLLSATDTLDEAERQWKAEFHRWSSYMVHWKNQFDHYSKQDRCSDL
Experiment: Inhibition of human AchE preincubated for 20 mins followed by substrate addition using acetylthiocholine iodide as substrate by Ellman's method
pIC50: −log10 of the molar value.
Parameter: pIC50

{"columns": ["Given Smiles", "Obs Value"],
 "data": [
  ["COc1ccc2nc3c(c(NCCCCCCCCN(CC(=O)Nc4ccc5ccccc5c4)C(=O)/C=C/c4ccc(O)c(OC)c4)c2c1)CCCC3", 7.65]
]}

---

Molecular target: Cholinesterase (Equus caballus)
Sequence (P81908 whole entry): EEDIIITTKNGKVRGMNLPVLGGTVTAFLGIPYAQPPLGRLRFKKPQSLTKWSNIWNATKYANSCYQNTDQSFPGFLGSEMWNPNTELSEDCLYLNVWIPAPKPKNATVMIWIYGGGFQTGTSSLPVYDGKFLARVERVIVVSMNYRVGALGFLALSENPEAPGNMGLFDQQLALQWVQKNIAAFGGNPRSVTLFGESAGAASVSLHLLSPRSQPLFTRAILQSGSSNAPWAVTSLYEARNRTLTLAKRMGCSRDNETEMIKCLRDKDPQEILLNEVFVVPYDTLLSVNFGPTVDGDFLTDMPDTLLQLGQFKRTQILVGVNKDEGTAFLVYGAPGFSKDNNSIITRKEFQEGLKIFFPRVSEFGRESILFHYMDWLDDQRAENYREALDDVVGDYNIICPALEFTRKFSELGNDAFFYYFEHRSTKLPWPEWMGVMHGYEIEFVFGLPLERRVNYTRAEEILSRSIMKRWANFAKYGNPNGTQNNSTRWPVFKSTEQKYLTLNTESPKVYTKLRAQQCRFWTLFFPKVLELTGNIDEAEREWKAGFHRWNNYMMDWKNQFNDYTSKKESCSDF
Assay: Inhibition of equine BuChE incubated for 15 mins using butyrylthiocholine as substrate by Ellman's method

{"columns": ["Given Smiles", "Unit Name", "IC50"],
 "data": [
  ["COc1cc(/C=C/C(=O)N2CCc3ccccc3C2)ccc1OCCCCN(CNCc1ccccc1)CNCc1ccccc1", "µM", 8.93]
]}

---

Target: UniProtKB P81908
Assay: Inhibition of equine serum BuchE preincubated for 6 mins followed by substrate addition using butyrylthiocholine iodide as substrate by DTNB reagent based Ellman method
Collected IC50 values appear next to each entry.
Parameter: IC50 (nM)

{"columns": ["Given Smiles", "Experimental Target", "Parameter", "Obs Value"],
 "data": [
  ["COc1ccc(/C=C/C(=O)Nc2cc[n+](Cc3ccc(F)cc3)cc2)cc1OC.[Br-]", "UniProtKB P81908", "IC50", 2.6],
  ["COc1ccc(/C=C/C(=O)Nc2cc[n+](Cc3cccc(F)c3)cc2)cc1OC", "UniProtKB P81908", "IC50", 3.1]
]}

---

Target: UniProtKB P22303
Assay: Inhibition of human AchE using acetylthiocholine iodide as substrate by Ellman colorimetric assay

{"columns": ["Given Smiles", "IC50 (nM)"],
 "data": [
  ["COc1cc(/C=C/c2nnc(-c3ccc(OC(F)(F)F)cc3)o2)ccc1O", 92],
  ["COc1cc(/C=C/c2nnc(-c3ccc(C(F)(F)F)cc3)o2)ccc1O", 68]
]}

---

Target: Amine oxidase [flavin-containing] B (Homo sapiens)
Sequence (P27338 whole entry): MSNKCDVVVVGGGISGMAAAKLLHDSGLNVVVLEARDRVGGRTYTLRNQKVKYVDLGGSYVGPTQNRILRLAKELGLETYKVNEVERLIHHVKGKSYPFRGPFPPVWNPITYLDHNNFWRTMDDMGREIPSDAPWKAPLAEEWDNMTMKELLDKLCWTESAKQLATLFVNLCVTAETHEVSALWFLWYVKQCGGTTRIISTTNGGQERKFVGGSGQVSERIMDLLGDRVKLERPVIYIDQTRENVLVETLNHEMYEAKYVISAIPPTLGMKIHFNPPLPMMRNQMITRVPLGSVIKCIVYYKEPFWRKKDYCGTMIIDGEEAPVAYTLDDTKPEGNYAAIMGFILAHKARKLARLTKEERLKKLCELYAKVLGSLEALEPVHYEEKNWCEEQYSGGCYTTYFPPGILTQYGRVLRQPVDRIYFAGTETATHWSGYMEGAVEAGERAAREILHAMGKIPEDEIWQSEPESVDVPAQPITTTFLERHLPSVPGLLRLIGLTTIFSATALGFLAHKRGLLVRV
Assay: Inhibition of recombinant human MAO-B assessed as measuring amount of 4-hydroxyquinoline using kynuramine as substrate incubated for 30 mins by fluorescence spectrophotometry
pIC50: −log10 of the molar value.
Parameter: pIC50

{"columns": ["Given Smiles", "Parameter", "Obs Value"],
 "data": [
  ["COc1cc(/C=C/C(=O)N2CCc3ccccc3C2)ccc1OCCCCN(CNCc1ccccc1)CNCc1ccccc1", "pIC50", 5.07]
]}

Values were extracted from ChEMBL document CHEMBL5096162.
